Hey, just so you know, these numbers are from paper PMC6717395.

Biological target: butyrylcholinesterase (BChE) (Homo sapiens)
Sequence (P06276 29-602, species assumed): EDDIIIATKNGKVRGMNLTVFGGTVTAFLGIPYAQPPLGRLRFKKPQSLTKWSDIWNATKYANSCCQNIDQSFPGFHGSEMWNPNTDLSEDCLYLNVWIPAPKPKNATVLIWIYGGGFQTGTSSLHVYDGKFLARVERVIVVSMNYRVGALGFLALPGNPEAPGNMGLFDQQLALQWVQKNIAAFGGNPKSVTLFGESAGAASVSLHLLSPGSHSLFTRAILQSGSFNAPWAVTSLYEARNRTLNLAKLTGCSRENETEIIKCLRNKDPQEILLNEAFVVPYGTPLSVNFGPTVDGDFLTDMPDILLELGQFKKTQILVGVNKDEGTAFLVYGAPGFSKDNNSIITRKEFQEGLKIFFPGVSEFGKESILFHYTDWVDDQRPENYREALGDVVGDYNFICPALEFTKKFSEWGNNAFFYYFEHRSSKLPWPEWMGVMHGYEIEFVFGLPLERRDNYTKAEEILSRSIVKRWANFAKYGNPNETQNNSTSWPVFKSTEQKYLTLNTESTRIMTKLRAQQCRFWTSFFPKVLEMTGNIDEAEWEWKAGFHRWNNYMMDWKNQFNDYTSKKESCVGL
MEASURED_PARAMETER: IC50 (µM)
Field: numeric (µM). Do not append units.

The reported butyrylcholinesterase (BChE) (Homo sapiens) IC50 of O=C(O)CCCCC(=O)O [Compound VIII, Hexanedioic acid] is 848
